settings: pH 2.7
Marks after values point to notes of the source that are not given here.
This listing pairs compounds with measured LogP.

compound | LogP
COc1cccc(/C(=N/OCc2cccc(NC(=O)CC(C)C)n2)c2noc(=O)n2C)c1 | 3.46 [a]
CCn1c(/C(=N\OCc2cccc(N)n2)c2ccccc2)noc1=O | 1.42 [a]
Cn1c(/C(=N\OCc2cccc(NC(=O)Cc3ccc4ccccc4c3)n2)c2ccccc2)noc1=O | 4.12 [a]
COc1ccc(C(=O)Nc2nc(CO/N=C(/c3ccccc3)c3noc(=O)n3C)cs2)cc1 | 3.48 [a]
COc1ccccc1OC(C)C(=O)Nc1cccc(CO/N=C(/c2ccccc2)c2noc(=O)n2C)n1 (centres unmarked) | 4.15 [a]
Cn1c(/C(=N\OCc2cccc(NC(=O)OCCc3ccccc3F)n2)c2ccccc2)noc1=O | 4.21 [a]
Cn1c(/C(=N\OCc2csc(NC(=O)COCc3ccccc3)n2)c2ccccc2)noc1=O | 3.6 [a]
CCCCCCCCOC(=O)Nc1cccc(CO/N=C(/c2ccccc2)c2noc(=O)n2C)n1 | 5.65 [a]
C#CC(C)(C)OC(=O)Nc1cccc(CO/N=C(/c2ccccc2)c2noc(=O)n2C)n1 | 3.6 [a]
COc1ccccc1C(=O)Nc1cccc(CO/N=C(/c2ccccc2)c2noc(=O)n2C)n1 | 3.87 [a]
CCc1ccccc1OC(=O)Nc1cccc(CO/N=C(/c2ccccc2)c2noc(=O)n2C)n1 | 4.25 [a]
CCCCCOC(=O)Nc1nc(CO/N=C(/c2ccccc2Cl)c2noc(=O)n2C)cs1 | 4.25 [a]
Cc1cc(C)c(OC(=O)Nc2cccc(CO/N=C(/c3ccccc3)c3noc(=O)n3C)n2)c(C)c1 | 4.56 [a]
COc1cccc(C(=O)Nc2nc(CO/N=C(/c3ccccc3)c3noc(=O)n3C)cs2)c1 | 3.58 [a]
CCCOC(=O)Nc1nc(CON=C(c2ccccc2)c2noc(=O)n2C)cs1 | 3.35 [a]
Cn1c(/C(=N\OCc2csc(NC(=O)c3ccccc3I)n2)c2ccccc2)noc1=O | 3.6 [a]
COc1ccc(C(=O)Nc2cccc(CO/N=C(/c3ccccc3)c3noc(=O)n3C)n2)cc1 | 3.53 [a]

###

This listing pairs compounds with measured LogP.
conditions: pH 2.7
Marks after values point to notes of the source that are not given here.
value-type: LogP

compound | value-type | value
COc1ccc(/C(=N/OCc2cccc(NC(=O)C(F)(F)F)n2)c2noc(=O)n2C)cc1 [Example 191] | LogP | 3.37 [a]
Cn1c(/C(=N\OCc2csc(NC(=O)COc3cccc(Cl)c3)n2)c2ccccc2)noc1=O [Example 368] | LogP | 3.87 [a]
CCCCCC(=O)Nc1cccc(CO/N=C(/c2ccccc2)c2noc(=O)n2C)n1 [Example 111] | LogP | 3.89 [a]
CC(C)(C)OC(=O)Nc1cccc(CO/N=C(/c2ccc(F)cc2)c2noc(=O)[nH]2)n1 [Example 214] | LogP | 3.78 [a]
Nc1cccc(CON=C(c2cccc(F)c2)c2noc(=O)[nH]2)n1 [Example 129] | LogP | 1.35 [a]
CCn1c(/C(=N\OCc2cccc(NC(=O)Cc3ccc(OC)cc3)n2)c2ccccc2)noc1=O [Example 88] | LogP | 3.7 [a]
Cn1c(C(=NOCc2cccc(NC(=O)Cc3cc(F)ccc3F)n2)c2ccccc2)noc1=O [Example 255] | LogP | 3.62 [a]
CC(C)(C)OC(=O)Nc1cccc(CON=C(C(N)=NO)c2ccccc2F)n1 (mixture of isomers) [Example V-5] | LogP | 2.68 [a]

These entries and their values trace back to patent US9090600B2.
